Cited source for all entries: ChEMBL document CHEMBL3407416

For each of the molecules below, state its hepatocyte CLint.
Experiment Description: Intrinsic clearance in cryopreserved human hepatocytes measured per 10^6 cells
Assay type: ADME, cell-based, Hepatocyte
Study Conditions: read-out: CLH
One number for each entry, in µL/min/1e6 cells.

Consider the reported hepatocyte CLint for these molecules:
>  <Molecule>
CC(Nc1ccc(F)c(Cl)c1)c1cc(C(=O)N(C)C)cc2c(=O)cc(N3CCOCC3)oc12 (racemic)

>  <Unit>
µL/min/1e6 cells

>  <hepatocyte CLint>
8

$$$$
>  <Molecule>
C[C@@H](Nc1cc(F)cc(F)c1)c1cc(C(=O)N(C)C)cc2c(=O)cc(N3CCOCC3)oc12 [AZD-8186]

>  <Unit>
µL/min/1e6 cells

>  <hepatocyte CLint>
4

$$$$
>  <Molecule>
CC(Nc1cc(F)cc(F)c1)c1cc(C(=O)N2CCCC2)cc2c(=O)cc(N3CCOCC3)oc12 (racemic)

>  <Unit>
µL/min/1e6 cells

>  <hepatocyte CLint>
6

$$$$

Quick batch: hepatocyte CLint for everything below.
1. CC(Nc1cc(F)ccc1F)c1cc(C(=O)N(C)C)cc2c(=O)cc(N3CCOCC3)oc12 (racemic)
2. CC(c1cc(C(=O)N2CCCC2)cc2c(=O)cc(N3CCOCC3)oc12)N(C)c1cc(F)cc(F)c1 (racemic)

Result:
[6, 12]

----------
Experiment Description: Intrinsic clearance in cryopreserved human hepatocytes measured per 10^6 cells
Format: ADME, cell-based, Hepatocyte
Study Conditions: read-out: CLH
Measurement Type: hepatocyte CLint (µL/min/1e6 cells)
Answers are plain numbers, in µL/min/1e6 cells.

Please review the following examples before continuing.
>  <Compound>
CCN(CC)C(=O)c1cc(C(C)Nc2cc(F)cc(F)c2)c2oc(N3CCOCC3)cc(=O)c2c1 (racemic)

>  <Unit>
µL/min/1e6 cells

>  <hepatocyte CLint>
17

$$$$
>  <Compound>
Cc1cc(F)cc(NC(C)c2cc(C(=O)N(C)C)cc3c(=O)cc(N4CCOCC4)oc23)c1 (racemic)

>  <Unit>
µL/min/1e6 cells

>  <hepatocyte CLint>
6

$$$$
>  <Compound>
COCCN(C)C(=O)c1cc(C(C)Nc2cc(F)cc(F)c2)c2oc(N3CCOCC3)cc(=O)c2c1 (racemic)

>  <Unit>
µL/min/1e6 cells

>  <hepatocyte CLint>
6

$$$$

Q: For the compound shown here, CC(Nc1cc(Cl)cc(Cl)c1)c1cc(C(=O)N(C)C)cc2c(=O)cc(N3CCOCC3)oc12 (racemic) , give the reported hepatocyte CLint.
Result: 18

----------
Target Or System: Phosphatidylinositol 4,5-bisphosphate 3-kinase catalytic subunit beta isoform (Homo sapiens)
Sequence (P42338 whole entry, canonical isoform): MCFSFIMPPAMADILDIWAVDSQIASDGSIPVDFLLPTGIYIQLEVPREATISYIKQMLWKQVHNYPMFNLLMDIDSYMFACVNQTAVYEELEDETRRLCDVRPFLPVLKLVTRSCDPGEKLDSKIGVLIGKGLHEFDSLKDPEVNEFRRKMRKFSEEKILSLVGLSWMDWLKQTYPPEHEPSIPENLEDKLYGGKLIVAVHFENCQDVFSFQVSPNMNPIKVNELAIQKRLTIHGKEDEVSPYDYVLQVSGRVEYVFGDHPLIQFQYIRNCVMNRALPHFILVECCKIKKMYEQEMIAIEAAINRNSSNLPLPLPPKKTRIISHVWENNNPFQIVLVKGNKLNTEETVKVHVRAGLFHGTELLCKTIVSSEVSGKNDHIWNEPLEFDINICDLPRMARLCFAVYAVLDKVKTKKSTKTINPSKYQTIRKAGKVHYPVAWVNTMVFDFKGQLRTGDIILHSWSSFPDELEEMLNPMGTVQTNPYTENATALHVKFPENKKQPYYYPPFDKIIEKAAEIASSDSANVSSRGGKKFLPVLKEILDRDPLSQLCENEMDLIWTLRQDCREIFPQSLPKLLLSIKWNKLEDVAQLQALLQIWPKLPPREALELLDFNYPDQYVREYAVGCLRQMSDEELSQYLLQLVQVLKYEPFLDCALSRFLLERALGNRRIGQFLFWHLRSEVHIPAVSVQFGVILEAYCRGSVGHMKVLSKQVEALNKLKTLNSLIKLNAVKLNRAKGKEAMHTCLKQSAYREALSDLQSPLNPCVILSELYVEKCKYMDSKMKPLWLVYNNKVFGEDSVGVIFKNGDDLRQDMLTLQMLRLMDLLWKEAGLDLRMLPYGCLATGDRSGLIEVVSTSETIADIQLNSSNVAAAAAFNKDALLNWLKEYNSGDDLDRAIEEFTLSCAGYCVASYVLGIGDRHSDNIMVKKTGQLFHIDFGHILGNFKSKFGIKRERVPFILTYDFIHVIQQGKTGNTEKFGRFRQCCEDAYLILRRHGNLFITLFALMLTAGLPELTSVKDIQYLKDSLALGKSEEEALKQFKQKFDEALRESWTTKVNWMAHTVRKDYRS
Experiment Description: Inhibition of human recombinant PI3Kbeta using PIP2 by Kinase-Glo Plus assay
What IC50 was measured for each of the following?
Just so you know, I need the unit written after the number.

>  <Compound>
CC(c1cc(C(=O)N2CCCC2)cc2c(=O)cc(N3CCOCC3)oc12)N(C)c1cc(F)cc(F)c1 (racemic)

>  <Result>
0.013 µM

$$$$

Provide each entry's IC50 from the list below.
1. CC(Nc1ccc(F)cc1)c1cc(C(=O)N(C)C)cc2c(=O)cc(N3CCOCC3)oc12 (racemic)
2. C[C@H](c1cc(C(=O)N2CCC(O)CC2)cc2c(=O)cc(N3CCOCC3)oc12)N(C)c1cc(F)cc(F)c1
3. CC(Nc1cc(F)ccc1F)c1cc(C(=O)N(C)C)cc2c(=O)cc(N3CCOCC3)oc12 (racemic)
4. CCNC(=O)c1cc(C(C)Nc2cc(F)cc(F)c2)c2oc(N3CCOCC3)cc(=O)c2c1 (racemic)
5. CC(Nc1cc(F)cc(F)c1)c1cc(C(=O)N2CCCCC2)cc2c(=O)cc(N3CCOCC3)oc12 (racemic)
6. CC(Nc1cc(Cl)cc(Cl)c1)c1cc(C(=O)N(C)C)cc2c(=O)cc(N3CCOCC3)oc12 (racemic)
7. CC(Nc1cccc(F)c1)c1cc(C(=O)N(C)C)cc2c(=O)cc(N3CCOCC3)oc12 (racemic)

Result:
0.018 µM
0.007 µM
0.019 µM
0.009 µM
0.012 µM
0.01 µM
0.012 µM
